Collected IC50 values appear next to each entry.
Target: human Nav 1.8 (Homo sapiens)
Sequence (Q9Y5Y9 whole entry, looked up, the tested form may be a part): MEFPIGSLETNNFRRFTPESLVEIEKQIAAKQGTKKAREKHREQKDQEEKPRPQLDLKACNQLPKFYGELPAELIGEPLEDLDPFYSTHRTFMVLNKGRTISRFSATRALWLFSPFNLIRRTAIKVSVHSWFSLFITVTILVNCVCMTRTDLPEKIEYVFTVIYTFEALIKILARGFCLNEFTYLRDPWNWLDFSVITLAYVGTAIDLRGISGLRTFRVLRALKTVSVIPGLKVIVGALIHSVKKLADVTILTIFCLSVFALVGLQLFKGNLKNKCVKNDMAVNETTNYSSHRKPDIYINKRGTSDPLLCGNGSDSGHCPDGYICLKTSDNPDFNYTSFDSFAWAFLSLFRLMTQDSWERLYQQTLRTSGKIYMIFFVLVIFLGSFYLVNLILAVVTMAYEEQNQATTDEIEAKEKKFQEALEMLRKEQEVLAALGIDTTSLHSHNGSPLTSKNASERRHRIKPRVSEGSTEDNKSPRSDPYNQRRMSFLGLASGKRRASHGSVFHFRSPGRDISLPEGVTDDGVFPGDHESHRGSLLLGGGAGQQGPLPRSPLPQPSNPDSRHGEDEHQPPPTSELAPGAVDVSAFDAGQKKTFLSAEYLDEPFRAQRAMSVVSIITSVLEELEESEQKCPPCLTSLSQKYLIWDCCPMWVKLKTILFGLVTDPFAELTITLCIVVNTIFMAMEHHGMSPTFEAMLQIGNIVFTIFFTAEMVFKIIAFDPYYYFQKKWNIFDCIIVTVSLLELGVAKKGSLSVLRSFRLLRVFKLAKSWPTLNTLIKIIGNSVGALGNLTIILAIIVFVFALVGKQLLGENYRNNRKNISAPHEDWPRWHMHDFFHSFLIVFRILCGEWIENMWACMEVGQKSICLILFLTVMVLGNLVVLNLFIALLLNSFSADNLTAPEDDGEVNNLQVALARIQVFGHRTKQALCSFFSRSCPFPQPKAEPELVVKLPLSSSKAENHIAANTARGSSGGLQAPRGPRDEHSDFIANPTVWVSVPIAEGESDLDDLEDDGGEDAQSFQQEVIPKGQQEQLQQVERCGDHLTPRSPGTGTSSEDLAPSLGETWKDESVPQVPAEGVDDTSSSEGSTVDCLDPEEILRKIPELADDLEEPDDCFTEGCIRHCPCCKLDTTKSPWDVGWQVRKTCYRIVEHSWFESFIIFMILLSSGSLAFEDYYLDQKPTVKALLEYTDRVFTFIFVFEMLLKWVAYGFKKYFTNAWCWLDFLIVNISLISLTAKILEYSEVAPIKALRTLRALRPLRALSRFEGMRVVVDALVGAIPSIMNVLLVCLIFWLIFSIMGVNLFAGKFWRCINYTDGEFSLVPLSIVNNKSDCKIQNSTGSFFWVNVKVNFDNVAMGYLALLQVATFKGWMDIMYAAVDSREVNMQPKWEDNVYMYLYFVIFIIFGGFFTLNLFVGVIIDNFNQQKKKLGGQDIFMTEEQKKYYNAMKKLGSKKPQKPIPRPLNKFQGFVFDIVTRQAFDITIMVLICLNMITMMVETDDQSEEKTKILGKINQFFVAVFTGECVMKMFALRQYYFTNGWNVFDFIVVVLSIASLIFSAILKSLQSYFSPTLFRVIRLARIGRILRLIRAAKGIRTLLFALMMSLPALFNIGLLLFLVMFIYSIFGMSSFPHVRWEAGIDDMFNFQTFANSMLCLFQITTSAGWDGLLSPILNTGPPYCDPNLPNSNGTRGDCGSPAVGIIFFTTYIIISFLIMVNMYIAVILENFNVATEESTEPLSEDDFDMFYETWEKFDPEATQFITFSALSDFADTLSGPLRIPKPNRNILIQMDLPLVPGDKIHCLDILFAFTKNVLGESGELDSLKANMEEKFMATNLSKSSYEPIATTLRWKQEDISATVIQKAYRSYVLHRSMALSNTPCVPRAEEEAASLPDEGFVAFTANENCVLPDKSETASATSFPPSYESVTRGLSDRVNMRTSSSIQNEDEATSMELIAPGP
Experiment: E-VIPR assay detecting and measuring Nav inhibition (HEK cells expressing truncated human Nav 1.8)
Assay type: cell-based
Details: in the Presence of Human Serum in the E-VIPR Assay; read-out: IC50
metricName: IC50

1) C[C@@]1(C(F)(F)F)C[C@H](c2ccc(F)cc2OC(F)F)[C@@H](C(=O)Nc2ccnc(C(N)=O)c2)O1 : > 1000 nM
2) COc1c([C@H]2C[C@](C)(CC(F)(F)F)O[C@@H]2C(=O)Nc2ccnc(C(N)=O)c2)ccc(F)c1F (single isomer, unassigned) : 100 to 1000 nM
3) COc1cc(F)ccc1[C@@H]1[C@@H](C(=O)Nc2ccnc(C(N)=O)c2)O[C@](C)(C(F)(F)F)[C@H]1C (single isomer, unassigned) : > 1000 nM

Data provenance: patent US11919887B2
